- Test Summary: physchem

Compound Smiles | pKa
NCCCC[C@H](N)C(=O)O | 10.5

The measurements presented in this section are drawn from patent EP0486045A2.
